assay-target: T1, HA-GCN4 hAPRIL (amino acid residues 105-250) (human, UniProt O75888 105-250)
T1 construct: Bought (R&D Systems); also called HA-tagged GCN4 human APRIL; HA-GCN4-huAPRIL; not shown: N-terminal HA tag; GCN4 isoleucine zipper oligomerization domain
T1 sequence: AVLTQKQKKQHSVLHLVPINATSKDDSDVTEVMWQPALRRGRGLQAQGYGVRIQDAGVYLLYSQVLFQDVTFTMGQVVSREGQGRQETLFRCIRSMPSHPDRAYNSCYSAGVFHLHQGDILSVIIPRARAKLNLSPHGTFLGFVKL
assay-details: blocking ELISA; blocked: human APRIL binding to TACI-Fc
reported-endpoint: pIC50
pIC50 field: float, defined as -log10 of concentration (mol/L).

// below: answered binders
binder | pIC50
2419-0806 (antibody, V domains shown) VH: EVQLVQSGAEVKKPGESLKISCKASGYTFTDYTIHWVRQMPGKGLEWMGWIYPLRGSINYSPSFQGQVTISADKSISTVYLQWSSLKASDTAMYFCARHGAYYSNAFDYWGQGTLVTVSS VL: EIVMTQSPATLSVSPGERATLSCRASESVDNDGIRFLHWYQQKPGQAPRLLIYRASTRATGIPARFSGSGSRTEFTLTISSLQSEDFAVYYCQQSNKDPYTFGGGTKVEIK | 9.49
monoclonal antibody 4540 (antibody, V domains shown, mouse-derived) VH: QVQLQQSGPELVKPGASVKISCKASGYTFADYYINWVKQRPGQGLEWIGWIFPGSGSTYYNEKFKGKATLTVDKSSSTAYMLLSSLTSEDSAVYFCARGDSGRAMDYWGQGTSVTVSS VL: DIQMTQSPSSLSASLGGKVTITCKASQDINKYIAWYQHKPGKGPRLLIHYTSTLQSGIPSRFSGSGSGRDYSFSISNLEPEDNATYYCLQYDNLLTFGAGTKLELK | 9.40
monoclonal antibody 2419-0205 (antibody, IgG2, V domains shown) VH: QVQLVQSGAEVKKPGSSVKVSCKASGYTFTDYTIHWVRQAPGQGLEWMGWIYPLRGSINYAQKFQGRVTITADKSTSTAYMELSSLRSEDTAVYFCARHGAYYSNAFDYWGQGTLVTVSS VL: EIVMTQSPATLSVSPGERATLSCRASESVDNDGIRFLHWYQQKPGQAPRLLIYRASNRETGIPARFSGSGSGTEFTLTISSLQSEDFAVYYCQQSNKDPYTFGGGTKVEIK | 9.51

Q: Please supply the value of reported pIC50 for the item 2419-0406 (antibody, V domains shown) VH: QVQLVQSGAEVKKPGSSVKVSCKASGYTFTDYTIHWVRQAPGQGLEWMGWIYPLRGSINYAEKFKGRVTLTADKSTSTVYMELSSLRSEDTAVYFCARHGAYYSNAFDYWGQGTLVTVSS VL: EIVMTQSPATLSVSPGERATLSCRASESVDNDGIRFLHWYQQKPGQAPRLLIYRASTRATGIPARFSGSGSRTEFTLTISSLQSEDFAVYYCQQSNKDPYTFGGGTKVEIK
A: 9.48

meta.source: patent US20170145086A1
